- assayed system: Interstitial collagenase (Homo sapiens, UniProt P03956)
- Sequence (P03956 whole entry): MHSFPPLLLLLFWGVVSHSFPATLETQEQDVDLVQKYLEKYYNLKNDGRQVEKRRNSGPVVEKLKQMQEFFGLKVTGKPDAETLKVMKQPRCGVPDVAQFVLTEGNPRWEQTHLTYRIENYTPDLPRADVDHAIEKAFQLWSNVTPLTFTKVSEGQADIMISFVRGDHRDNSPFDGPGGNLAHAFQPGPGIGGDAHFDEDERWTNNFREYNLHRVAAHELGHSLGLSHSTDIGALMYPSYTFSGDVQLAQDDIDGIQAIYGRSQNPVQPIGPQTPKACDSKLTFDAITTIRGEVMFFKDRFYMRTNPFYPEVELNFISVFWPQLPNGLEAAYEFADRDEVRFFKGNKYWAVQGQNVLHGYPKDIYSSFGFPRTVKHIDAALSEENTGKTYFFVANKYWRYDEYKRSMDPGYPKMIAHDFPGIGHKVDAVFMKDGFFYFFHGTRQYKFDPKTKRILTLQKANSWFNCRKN
- procedure text: Inhibition of rat skin type I collagen degradation by purified human lung fibroblast collagenase without beta-mercaptoethanol
assay endpoint: IC50 (nM)

P = CNC(=O)[C@H](Cc1c[nH]c2ccccc12)NC(=O)[C@H](CC(C)C)[C@H](CC(=O)OC)SS[C@@H](CC(=O)OC)[C@@H](CC(C)C)C(=O)N[C@@H](Cc1c[nH]c2ccccc12)C(=O)NC
Q = CNC(=O)[C@H](Cc1c[nH]c2ccccc12)NC(=O)[C@H](CC(C)C)[C@@H](S)CC(=O)OC
Kindly identify the item with the lower IC50 figure among these two: P and Q // return label of chosen record Q
(Q: 21 nM, P: 1400 nM)
